Target: Canine_OSMR_hlgG1_Fc (canine)
Sequence (chain, as listed by the source limits assumed, form in doubt): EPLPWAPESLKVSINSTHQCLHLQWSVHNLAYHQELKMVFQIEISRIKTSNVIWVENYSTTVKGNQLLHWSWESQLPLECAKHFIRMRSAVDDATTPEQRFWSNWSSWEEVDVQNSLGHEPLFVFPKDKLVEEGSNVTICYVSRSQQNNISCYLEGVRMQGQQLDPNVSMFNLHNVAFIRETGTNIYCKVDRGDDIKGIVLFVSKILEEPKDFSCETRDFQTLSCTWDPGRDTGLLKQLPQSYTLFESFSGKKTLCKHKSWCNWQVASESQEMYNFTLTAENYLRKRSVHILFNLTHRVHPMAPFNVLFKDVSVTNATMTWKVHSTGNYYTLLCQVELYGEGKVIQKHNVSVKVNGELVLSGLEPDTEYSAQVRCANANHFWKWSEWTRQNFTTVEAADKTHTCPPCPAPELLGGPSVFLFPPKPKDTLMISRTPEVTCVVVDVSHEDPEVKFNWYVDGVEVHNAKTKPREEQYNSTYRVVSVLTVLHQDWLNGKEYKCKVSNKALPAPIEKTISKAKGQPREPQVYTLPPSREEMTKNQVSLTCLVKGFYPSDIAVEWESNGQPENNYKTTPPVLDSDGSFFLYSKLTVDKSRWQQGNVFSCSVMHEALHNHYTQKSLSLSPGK
Experiment: SPR Biacore
The reader will find reported kon values listed item by item below.
endpointLabel: kon (M⁻¹ s⁻¹)

>>> readoutnumber("Mu_10F07_VL (SEQ ID NO: 41)_T97A (antibody, V domains shown) VH: DVKLVESGEGLVKPGGSLKLSCAASGFTFSSYAMSWVRQTPEKRLEWVTYISSGGDYFYYADTVKGRFTISRDNARNTLYLQMSSLKSEDTAMYYCTRDPITGTFAYWGQGTLVTVSA VL: DIQMTQTTSSLSASLGDRVTISCRASQDITNYLNWYQQKPDGTVKLLIYYTSTLHSGVPSRFSGSGSGTDFSLTISNLEQEDIATYFCQQGHMLPWAFGGGTKLEIKR")
41200
>>> readoutnumber("mouse: canine 19F07 chimera (antibody, V domains shown) VH: EVKLVESEGGLVQPGSSMKLSCTASGFTFSDYYMAWVRQVPEKGLEWVANINYDGSSTYYLDSLKSRFIISRDNAKNILYLQMSSLKSEDTATYYCARGLTWDFDVWGTGTTVTVSS VL: DIVMTQSHKFMSPSVGDRVSITCKASQDVDTAVAWYQQKPGQSPKLLIYLASTRHTGVPDRFTGSGSGTDFTLTISNVQSEDLADYFCQQYSRFPLTFGAGTKLELKR")
88400
>>> readoutnumber("Mu_10F07_VL (SEQ ID NO: 41)_W96A (antibody, V domains shown) VH: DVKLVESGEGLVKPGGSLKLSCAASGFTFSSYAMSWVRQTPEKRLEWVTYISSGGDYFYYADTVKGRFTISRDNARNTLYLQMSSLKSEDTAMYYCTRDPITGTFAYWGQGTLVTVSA VL: DIQMTQTTSSLSASLGDRVTISCRASQDITNYLNWYQQKPDGTVKLLIYYTSTLHSGVPSRFSGSGSGTDFSLTISNLEQEDIATYFCQQGHMLPATFGGGTKLEIKR")
"2.16e+08"
